System: Bacillus subtilis
experiment: cleaved RNA product abundance (RNA/gDNA barcode ratio) relative to median wild-type variant (ratio to wild type); higher = more accumulation of the downstream cleavage product
conditionDetails: experiment (reporter, strain, medium): exp 4a: truncated aprE reporter, strain BJT201 with 2% xylose (RNase J1 expressed); cleavage site: cggR-gapA (positions -7 to +36 mutated)
Below, each of the sequences is paired with its reported cleaved RNA product abundance value.
Answer as a number with no unit attached.

Recorded results for 5 sequences are shown here.
{"columns": ["sequenceData", "cleaved RNA product abundance"],
 "data": [
  ["ACAGACGAAGGAGCCGCAAAGAAGTTATTAATGGATGAATATTCCCTCAATATAAATATCTCTCACTTATTTAAA", 0.107],
  ["ACAGACGAAGGAGCCGCAAAGAAGTTATGAAGTGATGAATAATCCCTCAATATAAATATCTCTCACTTATTTAAA", 0.0812],
  ["ACAGACGAAGGAGCCGCAATGAAGTTATTAAGGGATGAATAATCACTCAATATAAATATCTCTCACTTATTTAAA", 0.129],
  ["ACAGACGAAGGAGCCGCAAAGAAGTTGTTAAGGTATGAATAATCCCTCAATATAAATATCTCTCACTTATTTAAA", 0.12],
  ["ACAGACGAAGGAGCCGCCAAGAAGTTATTCAGGGATGAATAATCCCTCAATATAAATATCTCTCACTTATTTAAA", 0.506]
]}

QUERY: GET /values?readout=cleaved RNA product abundance&item= ACAGACGAAGGAGCCGCAAAGAATTTATTAAGGGATGAATAATCCGTCAATATAAATATCTCTCACTTATTTAAA
RESULT: 0.163

QUERY: GET /values?readout=cleaved RNA product abundance&item= ACAGACGAAGGAGCCGCAAATAAGTTATTAATGAATGAATAATCCCTCAATATAAATATCTCTCACTTATTTAAA
RESULT: 0.107

QUERY: GET /values?readout=cleaved RNA product abundance&item= ACAGACGAAGGAGCCGCAAAGAAGTTATTAAGGGATGAATAATCCCTCAACATACATATCTCTCACTTATTTAAA
RESULT: 0.273

QUERY: GET /values?readout=cleaved RNA product abundance&item= ACAGACGAAGGAGCCGCAATGAAGATATTAAGGCATGAATAATCCCTCAATATAAATATCTCTCACTTATTTAAA
RESULT: 0.138

QUERY: GET /values?readout=cleaved RNA product abundance&item= ACAGACGAAGGAGCCGCAAAGAAGTTATTAAGGTATGAATAATCCCTCAATATAAATGTCTCTCACTTATTTAAA
RESULT: 0.107

QUERY: GET /values?readout=cleaved RNA product abundance&item= ACAGACGAAGGAGCCGCATAGAAATTATTAAGGGATGAATAATCCCTCAATATAAATATCTCTCACTTATTTAAA
RESULT: 0.574
